Test: Visual assessment of suspension formulations by time lapse photography 10 and 30 seconds after agitation
Format: physicochemical
Parameters: key: + = visually acceptable formulation; − = visually unacceptable formulation; ? = border line acceptable formulation
Conditions: Example 1: drug concentration 1.63 % in HFC 134a alone

Molecule	visual assessment of formulation
COc1ccc(C[C@@H](C)NC[C@H](O)c2ccc(O)c(NC=O)c2)cc1.COc1ccc(C[C@@H](C)NC[C@H](O)c2ccc(O)c(NC=O)c2)cc1.O=C(O)/C=C/C(=O)O [Formoterol fumarate]	+
O=C([O-])c1cc(=O)c2c(OCC(O)COc3cccc4oc(C(=O)[O-])cc(=O)c34)cccc2o1.[Na+].[Na+] [Disodium cromoglycate]	−
CC(C)(C)NCC(O)c1ccc(O)c(CO)c1 (stereo not shown)	+
CCC(=O)OCC(=O)[C@@]1(OC(=O)CC)[C@@H](C)C[C@H]2[C@@H]3CCC4=CC(=O)C=C[C@]4(C)[C@@]3(Cl)[C@@H](O)C[C@@]21C [Beclomethasone dipropionate]	+

----------
Experiment: Visual assessment of suspension formulations by time lapse photography 10 and 30 seconds after agitation
Type: physicochemical
Set-up: key: + = visually acceptable formulation; − = visually unacceptable formulation; ? = border line acceptable formulation
Settings: Example 1: drug concentration 0.039 % in HFC 134a alone

Molecule	visual assessment of formulation
O=C([O-])c1cc(=O)c2c(OCC(O)COc3cccc4oc(C(=O)[O-])cc(=O)c34)cccc2o1.[Na+].[Na+] [Disodium cromoglycate]	+
CC(C)(C)NCC(O)c1ccc(O)c(CO)c1 (stereo not shown)	+
COc1ccc(C[C@@H](C)NC[C@H](O)c2ccc(O)c(NC=O)c2)cc1.COc1ccc(C[C@@H](C)NC[C@H](O)c2ccc(O)c(NC=O)c2)cc1.O=C(O)/C=C/C(=O)O [Formoterol fumarate]	?
CCC(=O)OCC(=O)[C@@]1(OC(=O)CC)[C@@H](C)C[C@H]2[C@@H]3CCC4=CC(=O)C=C[C@]4(C)[C@@]3(Cl)[C@@H](O)C[C@@]21C [Beclomethasone dipropionate]	+

FYI, the data here is from patent US6743413B1.
